Source of measurements: ChEMBL document CHEMBL1201862

- System: M14
- procedure-details: NCI tumour cell line growth inhibition, 48 h
The source made the active and inactive calls. Cut-off read from the data, not from the text of the source: active = GI50 up to about 1.1 µM and inactive = higher.
Field 'call' accepts active, inactive

These recorded examples may help you get a feel for the data.
INSERT INTO measurements (compound, study_target, assigned_category) VALUES
  ('COC(=O)/N=C(\NC(=O)OC)Nc1ccc(Oc2ccccc2)cc1NC=O', 'M14', 'active'),
  ('COC(=O)c1ccccc1C1CN=NC12Cc1c(ccc(C)c1C)C2=O (centres undefined)', 'M14', 'inactive'),
  ('COC(=O)C1=C(C(=O)OC)C2(C)Nc3ccccc3C2=C(c2ccccc2)C1 (centres undefined)', 'M14', 'inactive'),
  ('CC(C)c1cccc(C(C)C)c1NC(=O)/C(Cc1nc2ccc(Cl)cc2nc1O)=N\NC(=O)C[N+](C)(C)C', 'M14', 'inactive'),
  ('COc1ccc(/N=C(C)/C(C)=N/c2ccc(OC)cc2)cc1', 'M14', 'inactive');

What is the recorded call for this compound in the test? C[C@]12OC(=O)[C@]3(O)CC[C@H]4[C@@H](C[C@@H](O)[C@@]5(Cl)CC=CC(=O)[C@]45C)[C@]45OCC6C(=O)O[C@@H]1C[C@@]6(C)[C@H](C4=O)[C@@]32O5 (some centres undefined)
inactive

Ok, now CCO/C(=N/S(=O)(=O)C(F)(F)F)N(C(C)C)C(C)C
inactive

// same read-out, input: CC(=O)OCC1OC(n2ccc(=O)[nH]c2=O)C(OC(C)=O)C(OC(C)=O)C1OC(C)=O (centres undefined)
inactive

# repeat for Nc1ncnc(NC2C=C(CO)C(O)C2O)c1[N+](=O)[O-] (centres undefined)
inactive

Now the same for CCOC(=O)C(=O)Nc1ccccc1OCC
inactive

For O=C(O)c1cc(C(=O)O)nc(C(=O)O)c1 then?
inactive

Similarly, Cc1ccc2nc(Cl)c(/C=N/N3C(=O)/C(=C/c4cccc([N+](=O)[O-])c4)N=C3c3ccccc3)cc2c1 ?
inactive

Next compound up: CC1CC2C3CCC4=CC(=O)C=CC4(C)C3(F)C(O)CC2(C)C1(O)C(=O)CO.Cc1cc(NS(=O)(=O)c2ccc(/N=N\c3cc(/N=N/c4ccc(S(=O)(=O)Nc5cc(C)nc(C)n5)cc4)c(OC(=O)C(Cl)Cl)c4cccc(NC(=O)C(Cl)Cl)c34)cc2)nc(C)n1
inactive

Check COc1ccc2c(c1)/C(=C\c1c(Cl)nc3sc(C)cn13)C(=O)N2 too.
inactive

What would you report for C/C(=N\O)c1ccc(Nc2nc3ccccc3c3occc23)cc1 ?
inactive

Subsequent entry: C/C(=N\[N+](C)(C)C)c1ccc(C)c(C)c1
inactive

Moving on to the next compound: CC1=C2CCCC2C/C(=N/Nc2ccc([N+](=O)[O-])cc2[N+](=O)[O-])CC1 (centres undefined)
inactive

Next record, please: COc1c(C)c(O)c2c(c1C)OC(c1ccccc1)CC2=O (centres undefined)
inactive

Also Cn1c2ccccc2c2ccc3c(c21)C(=O)c1ccccc1C3=O ?
inactive

Same again, this time with Cc1c(S(=O)(=O)O)ccc(/N=N/c2c(O)c(C(=O)O)cc3ccccc23)c1Cl
inactive

Likewise for Cc1ccc(C(=O)NC2CCCCC2)cc1/N=N/N(C)C ?
inactive

For CC(=O)c1c2c(cc3c1CC1(Cc4cc5c(cc4C1)C(=O)CCC5)C3)CCCC2 (centres undefined) then?
inactive

// query: CCn1c(-c2ccccc2)nc2c1C(=O)c1ccccc1C2=O
inactive

Same question, O=c1c2cc([N+](=O)[O-])ccc2[nH]n1Cc1ccccc1Cl this time
inactive

Next record, please: Cc1ccc(S(=O)(=O)Oc2nc3nc4ccccc4nc3nc2OS(=O)(=O)c2ccc(C)cc2)cc1
inactive

How about this compound: CC(=O)NNc1nc(C)c(C(/C=C/c2ccc([N+](=O)[O-])cc2)=N/N)s1
inactive

Proceed to O=C(CCCl)NN=C1NCCN1
inactive

Okay, and O=C(CCN1CCCC1)Nc1ccc2sc3ccccc3c(=O)c2n1 ?
inactive

How about Cc1cc(C(O)CNC(C)CCn2cnc3c2c(=O)n(C)c(=O)n3C)ccc1O (centres undefined) ?
inactive

Try this compound next: O=C1/C(=C/C=C/c2ccccc2)CCC1CNc1ccc(Br)cc1 (centres undefined)
inactive

Request: O=C(/C=C/c1cccs1)c1cccc(C(=O)/C=C/c2cccs2)n1
inactive
